Sourced from PubChem BioAssay (NCATS)

Protocol Description: Primary qHTS for Vero E6 cytotoxicity: counterscreen for inhibitors of SARS-S pseudo-typed particle cell entry (AID 1479150)
Test Settings: cell viability; series mostly up to 57.1 µM
Records with an inconclusive call do not appear. Activity calls are given as the source filed them. The call rests on the fitted dose curve.
Assign a class; possible classes are class 1 for active, class 0 for inactive

Here are 5 molecules together with their reported answers.
In [3]: df
Out[3]:
                                   molecule  qualitative_label
0        Cc1ccc2nc(N)[nH]c(=O)c2c1Sc1ccncc1            class 0
1              O=C(Oc1cccc2cccnc12)c1ccccc1            class 1
2  CC(C(=O)O)c1ccc(CC2CCCC2=O)cc1 (configuration not stated)            class 0
3  CC(C(O)c1ccccc1)N(C)C/C=C/c1ccccc1 (configuration not stated)            class 0
4  CCN(CC)C(=O)C1CN2CCc3cc(OC)c(OC)cc3C2CC1OC(C)=O (configuration not stated)            class 0

Note: attention shifts to another entry.
// param item: Brc1c(NC2=NCCN2)ccc2nccnc12 ; yields the recorded call class 0

====

Tested on: PC26
Protocol Description: qHTS profiling for inhibitors of Plasmodium falciparum proliferation (AID 504749); further: nearly all actives have a fitted effect of over 60% in size
Test Settings: P. falciparum in erythrocytes, SYBR Green DNA, 72 h; series mostly up to 28.7 µM
Results filed as inconclusive are left out. Calls of active or inactive are those of the source. The call rests on the fitted dose curve; in most records, active means well fitted inhibition curve with a large enough effect; inconclusive means small, poorly fitted or top-dose-only effect; inactive means flat fitted curve, though single readings scatter.
Assign a class; possible classes are active, inactive

Here are 6 compounds together with their reported answers.
>>> df
                                   compound  qualitative_label
0  Clc1ccc(CO/N=C(\Cn2ccnc2)c2ccc(Cl)cc2Cl)c(Cl)c1             active
1  CCC(=O)O[C@H]1CC[C@H]2[C@@H]3CCC4=CC(=O)CC[C@]4(C)[C@H]3CC[C@]12C           inactive
2                       CC(C)(O)C(Cl)(Cl)Cl             active
3  C[C@]12Cc3nonc3C[C@@H]1CC[C@@H]1[C@@H]2CC[C@@]2(C)[C@H]1CC[C@]2(C)O           inactive
4  CCN(CC)C(C)C(=O)c1ccccc1 (stereo unspecified)           inactive
5  COP(=S)(OC)Oc1ccc(Sc2ccc(OP(=S)(OC)OC)cc2)cc1           inactive

// param item: Oc1c(Br)cc(Br)cc1Br ; yields the recorded call inactive

// param item: CCN(Cc1ccc(Cl)nc1)/C(=C/[N+](=O)[O-])NC ; yields the recorded call inactive

// param item: COc1ccc(C(=O)N2CCCC2=O)cc1 ; yields the recorded call inactive

// param item: ClC1=C(Cl)C2(Cl)C(CBr)CC1(Cl)C2(Cl)Cl (stereo unspecified) ; yields the recorded call inactive

// param item: Oc1ccc2[nH]cc(CCCCN3CC=C(c4ccccc4)CC3)c2c1 ; yields the recorded call active

// param item: COP(=O)(OC)C(O)C(Cl)(Cl)Cl (stereo unspecified) ; yields the recorded call inactive

// param item: CCS(=O)(=O)C(C)(C)S(=O)(=O)CC ; yields the recorded call inactive

// param item: CCCCCCCCC(=O)NCc1ccc(O)c(OC)c1 ; yields the recorded call inactive

// param item: N#Cc1nn(-c2c(Cl)cc(C(F)(F)F)cc2Cl)c(N)c1S(=O)C(F)(F)F (stereo unspecified) ; yields the recorded call active

// param item: COC(=O)C1=CCCN(C)C1 ; yields the recorded call inactive

// param item: OC(c1ccccc1)(c1ccccc1)C1CCNCC1 ; yields the recorded call inactive
